B1: IKZF1 (parent)
chain: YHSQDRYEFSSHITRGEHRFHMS

variants of: B1; assay: protein stability index of a GFP-peptide fusion (GPS, HEK-293T) (PSI 1-6); higher = more stable; conditions: c terminus: native;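 further: lentivirally expressed fusions sorted by FACS into six bins by GFP to DsRed ratio, PSI derived from sequencing read proportions per bin multiplied by bin number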
Tick T if protein stability index is 2 or greater. Tick F if protein stability index is less than 2.

Sample answers from the record:
Task: Kindly determine if protein stability index recorded for E8S is above or exactly 2.
Result: T

Task: Kindly determine if protein stability index recorded for T14K is above or exactly 2.
Result: F

Task: Reported protein stability index at or above 2? Y1H
Result: T

Task: Form field: protein stability index at least 2? Entry: F20I
Result: T

Task: Entry T14P : is its protein stability index no less than 2?
Result: F

Task: Could you please find out whether M22Y has protein stability index that meets 2 or exceeds it?
Result: F

Task: protein stability index >= 2 for D5L ?
Result: T

Task: Determine whether this variant has protein stability index no lower than 2: E17I
Result: T

***
Task: Reported protein stability index at or above 2? Q4H
Result: T

Task: Hi team, for S23L , is the recorded protein stability index at or above 2?
Result: F

Task: Confirm if protein stability index reported for the variant H18N is 2 or above.
Result: F

Task: Test whether the variant F9N records protein stability index of 2 or higher.
Result: F

Task: Item F9T with protein stability index of 2 or above?
Result: F

Task: Hi, just wondering whether S10W shows protein stability index of 2 or higher.
Result: T

Task: Can F9V be said to have protein stability index at or above 2?
Result: T

Task: Evaluate R19Q : protein stability index at minimum 2?
Result: T

Task: Please check the record S23R and state if its protein stability index is at or above 2.
Result: F

Values were extracted from the supplement of paper PMC10567573.
